These data points were gathered from patent US20220324835A1.

- ASSAYED TARGET: UniProt Q13191
- TEST PROTOCOL: Cbl-b activity assay (Cbl-b inhibition assay), TR-FRET of Cbl-b interaction with UbcH5B-Ub
- Type: biochemical
- SETTINGS: assay buffer with 100 mM NaCl, 60 nM Src kinase; read-out: Cbl-b activity IC50
pIC50: −log10 of the molar value.
Recorded measurements of pIC50, one per entry

INSERT INTO measurements (compound, result) VALUES
  ('Cc1ccc(C(=O)Nc2cccc([C@H](C)[C@H](O)c3nncn3C)c2)nc1C1CC1 [Compound 288]', '5.00 to 5.52'),
  ('Cn1cnnc1CC1(c2cccc(NC(=O)c3cc(Cn4ccnn4)nc(C4CC4)n3)c2)COC1 [Compound 506]', '> 7.00'),
  ('Cn1cnnc1CC(C)(O)c1cccc(N2Cc3c(cccc3C(F)(F)F)C2=O)c1 (stereo not drawn) [Compound 297]', '5.00 to 5.52');

query: Specify the recorded pIC50 for C[C@@H](Sc1nncn1C)c1cccc(NC(=O)c2cc(C(=O)N3CC[C@H](O)C3)ccn2)c1 [Compound 161] , system: UniProt Q13191.
result: 5.00 to 5.52

###

- ASSAYED TARGET: Cbl-b (Homo sapiens, UniProt Q13191)
- Sequence (Q13191 36-427): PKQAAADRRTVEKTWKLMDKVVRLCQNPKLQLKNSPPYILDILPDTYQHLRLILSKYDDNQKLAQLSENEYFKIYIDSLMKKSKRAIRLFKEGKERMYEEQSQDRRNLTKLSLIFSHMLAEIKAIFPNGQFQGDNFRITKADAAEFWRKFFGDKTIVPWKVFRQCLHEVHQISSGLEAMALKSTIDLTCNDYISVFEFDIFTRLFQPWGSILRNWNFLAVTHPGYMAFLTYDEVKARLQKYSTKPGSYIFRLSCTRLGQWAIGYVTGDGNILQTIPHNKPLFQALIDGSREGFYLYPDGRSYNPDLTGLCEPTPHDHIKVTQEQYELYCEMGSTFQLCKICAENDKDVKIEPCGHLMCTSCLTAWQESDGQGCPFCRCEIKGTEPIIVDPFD
- TEST PROTOCOL: Cbl-b activity assay (Cbl-b inhibition assay), TR-FRET of Cbl-b interaction with UbcH5B-Ub
- Type: biochemical
- SETTINGS: assay buffer with 100 mM NaCl, 60 nM Src kinase; read-out: Cbl-b activity IC50
READOUT: IC50

Some solved entries appear below for comparison.
INSERT INTO results (compound, result) VALUES
  ('C[C@H](Cc1nncn1C)c1cccc(N2Cc3c(cc(CO)cc3C(F)(F)F)C2=O)c1 [Compound 392]', '< 100 nM'),
  ('CC(c1cc2c(c(C(F)(F)F)c1)CN(c1cccc(C3(Cc4nncn4C)COC3)c1)C2=O)N1CC(S(C)(=O)=O)C1 (stereo not drawn) [Compound 430]', '< 100 nM'),
  ('Cn1cnnc1CC1(c2cccc(N3Cc4c(cc(N5CC(C(F)F)C5)nc4C4CC4)C3=O)c2)COC1 [Example 609]', '< 100 nM'),
  ('Cc1nc(C(=O)Nc2cccc([C@H](C)Sc3nncn3C)c2)ccc1Cl [Compound 39]', '100 to 300 nM'),
  ('Cc1cc(C(=O)Nc2cccc([C@H](C)Cc3nncn3C)c2)nc(C(F)(F)F)n1 [Compound 194]', '< 100 nM');

query: Determine its reported IC50: Cn1cnnc1C(F)(F)[C@](C)(F)c1cccc(N2Cc3c(cccc3C(F)(F)F)C2=O)c1 [Compound 296a]
result: 100 to 300 nM

query: Specify measured IC50 for C[C@H](Sc1nncn1C)c1cccc(NC(=O)c2cc(C(=O)N3CCCCC3)ccn2)c1 [Compound 144] .
result: 3000 to 10000 nM

query: Answer with reported IC50 of Cn1cnnc1CC(C)(C)c1cccc(NC(=O)c2cc(C(=O)N3CC[C@H](O)C3)cc(C(F)(F)F)n2)c1 [Compound 475]
result: < 100 nM

query: Tell me measured IC50 for C[C@@H](Cc1nncn1C)c1cccc(NC(=O)c2cc(C(=O)N3CC[C@H](O)C3)cc(C3CC3)n2)c1 [Compound 221] please.
result: 301 to 1000 nM

query: Output measured IC50 for this item: Cn1cnnc1C[C@]1(c2cccc(N3Cc4c(cccc4C(F)(F)F)C3=O)c2)C[C@H](CO)C1 [Compound 470]
result: 100 to 300 nM
